The reported measurements were obtained from ChEMBL document CHEMBL1201862.

system: MDA-MB-435; assay: NCI tumour cell line growth inhibition, 48 h
Activity calls are given as the source filed them. No stated cut-off is given here; in the data, active = GI50 up to about 1.1 µM and inactive = higher.
Allowed answers: active, inactive

Would you please look over these solved cases?
Compound	Assigned Label
COC(OC)[C@@H]1OC[C@@H](O)[C@@H]1n1cnc2c(N)ncnc21	inactive
CNc1cccc(-c2cc(O)c3cc4c(cc3n2)OCO4)c1	active
O=C1C(Cl)=C(NCCCN2CCOCC2)C(=O)c2c(O)ccc(O)c21	inactive
CC(C)(C)OC(=O)NCC(c1c[nH]c2cc(Br)ccc12)c1c[nH]c2cc(Br)ccc12	inactive
Cc1c(C)c2c(c(N)c1C#N)C(=O)N(OS(=O)(=O)c1ccccc1)C2=O	inactive

I'd appreciate the recorded outcome for Cc1c(O)c(OC2OC(CO)C(O)C(O)C2O)cc2c1CC[C@@H]1C2(C)C(=O)C[C@]2(C)[C@@H]([C@@](C)(O)C(O)/C=C/C(C)(C)O)[C@H](O)C[C@@]12C (some centres undefined) from this test.
inactive

I'd appreciate the recorded outcome for COc1ccc2nc(N/N=C/c3sccc3C)cc(C)c2c1 from this test.
inactive

I'd appreciate the recorded outcome for CC(=O)OCCCCn1cnc2nc(Nc3ccccc3)nc(Cl)c21 from this test.
inactive

I'd appreciate the recorded outcome for COC(=O)c1sc(=O)sc1SCc1cccc(CSc2sc(=O)sc2C(=O)OC)c1 from this test.
inactive
